Target: Delta-type opioid receptor (Homo sapiens, UniProt P41143)
Sequence (P41143 whole entry): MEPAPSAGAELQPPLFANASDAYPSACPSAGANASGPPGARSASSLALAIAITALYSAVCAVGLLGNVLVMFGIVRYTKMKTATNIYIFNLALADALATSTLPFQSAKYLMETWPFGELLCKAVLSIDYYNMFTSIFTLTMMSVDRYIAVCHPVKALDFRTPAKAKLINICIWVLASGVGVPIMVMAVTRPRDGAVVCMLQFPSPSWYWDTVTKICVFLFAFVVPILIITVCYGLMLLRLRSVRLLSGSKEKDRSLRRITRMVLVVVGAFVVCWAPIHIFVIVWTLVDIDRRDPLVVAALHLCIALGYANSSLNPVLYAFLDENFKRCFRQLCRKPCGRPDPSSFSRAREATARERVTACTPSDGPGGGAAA
Assay: Affinity towards human Opioid receptor delta 1 on CHO cell membranes using [3H]DPDPE displacement.
pKi values by entry
Reminder that pKi means the negative base-10 logarithm of the concentration expressed in mol/L.

These recorded examples may help you get a feel for the data.
• NC(=O)C[C@H](NC(=O)[C@H](Cc1ccccc1)NC(=O)[C@H](Cc1ccccc1)NC(=O)[C@@H]1Cc2ccccc2CN1C(=O)[C@@H](N)Cc1ccc(O)cc1)C(=O)O = 8.15
• CC(=O)NCCCC[C@@H](NC(=O)[C@H](Cc1ccccc1)NC(=O)[C@@H]1Cc2ccccc2CN1C(=O)[C@@H](N)Cc1ccc(O)cc1)C(=O)O = 7.67
• NC(=O)CC[C@H](NC(=O)[C@H](Cc1ccccc1)NC(=O)[C@H](Cc1ccccc1)NC(=O)[C@@H]1Cc2ccccc2CN1C(=O)[C@@H](N)Cc1ccc(O)cc1)C(=O)O = 8.01
• NC(=O)[C@@H](CC(=O)O)NC(=O)[C@H](Cc1ccccc1)NC(=O)[C@@H]1Cc2ccccc2CN1C(=O)[C@@H](N)Cc1ccc(O)cc1 = 7.16
• CC(=O)NCCCC[C@H](NC(=O)[C@H](Cc1ccccc1)NC(=O)[C@@H]1Cc2ccccc2CN1C(=O)[C@@H](N)Cc1ccc(O)cc1)C(=O)O = 7.56
• NC(=O)CC[C@@H](NC(=O)[C@H](Cc1ccccc1)NC(=O)[C@H](Cc1ccccc1)NC(=O)[C@@H]1Cc2ccccc2CN1C(=O)[C@@H](N)Cc1ccc(O)cc1)C(=O)O = 8.29

From here, focus on the item given below.
Given item `NC(=O)C[C@@H](NC(=O)[C@H](Cc1ccccc1)NC(=O)[C@@H]1Cc2ccccc2CN1C(=O)[C@@H](N)Cc1ccc(O)cc1)C(=O)O` , the value recorded as its pKi is 7.86

###

Target: Delta-type opioid receptor (Homo sapiens, UniProt P41143)
Experiment: Affinity towards human Opioid receptor delta 1 on CHO cell membranes using [3H]DPDPE displacement.
result_type: pKi
# reply with the number alone; pKi is -log10 of concentration in mol/L

Here are 5 compounds together with their reported answers.
• NC(=O)[C@H](CC(=O)O)NC(=O)[C@H](Cc1ccccc1)NC(=O)[C@@H]1Cc2ccccc2CN1C(=O)[C@@H](N)Cc1ccc(O)cc1 = 7.67
• NC(=O)C[C@H](NC(=O)[C@H](Cc1ccccc1)NC(=O)[C@@H]1Cc2ccccc2CN1C(=O)[C@@H](N)Cc1ccc(O)cc1)C(=O)O = 7.21
• NC(=O)[C@H](CCC(=O)O)NC(=O)[C@H](Cc1ccccc1)NC(=O)[C@H](Cc1ccccc1)NC(=O)[C@@H]1Cc2ccccc2CN1C(=O)[C@@H](N)Cc1ccc(O)cc1 = 8.00
• NC(=O)[C@H](CC(=O)O)NC(=O)[C@H](Cc1ccccc1)NC(=O)[C@H](Cc1ccccc1)NC(=O)[C@@H]1Cc2ccccc2CN1C(=O)[C@@H](N)Cc1ccc(O)cc1 = 8.02
• NC(=O)[C@@H](CCC(=O)O)NC(=O)[C@H](Cc1ccccc1)NC(=O)[C@@H]1Cc2ccccc2CN1C(=O)[C@@H](N)Cc1ccc(O)cc1 = 7.46

Now, please, on to the next compound.
Query `NC(=O)CC[C@@H](NC(=O)[C@H](Cc1ccccc1)NC(=O)[C@@H]1Cc2ccccc2CN1C(=O)[C@@H](N)Cc1ccc(O)cc1)C(=O)O` on Delta-type opioid receptor (Homo sapiens, UniProt P41143); pKi returned: 8.30

###

Target: Mu-type opioid receptor (Homo sapiens, UniProt P35372)
Sequence (P35372 whole entry): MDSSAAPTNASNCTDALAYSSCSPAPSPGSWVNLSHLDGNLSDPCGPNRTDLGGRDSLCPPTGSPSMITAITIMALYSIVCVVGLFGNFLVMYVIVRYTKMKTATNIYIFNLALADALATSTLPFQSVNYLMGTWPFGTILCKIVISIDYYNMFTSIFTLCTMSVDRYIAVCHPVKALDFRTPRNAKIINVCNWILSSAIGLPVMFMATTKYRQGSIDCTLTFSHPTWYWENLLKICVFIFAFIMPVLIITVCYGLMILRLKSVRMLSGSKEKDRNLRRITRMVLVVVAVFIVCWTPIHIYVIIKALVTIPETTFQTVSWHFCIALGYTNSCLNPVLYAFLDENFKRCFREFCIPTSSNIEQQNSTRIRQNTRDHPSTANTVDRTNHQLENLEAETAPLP
result_type: Ki

• NC(=O)[C@H](CCC(=O)O)NC(=O)[C@H](Cc1ccccc1)NC(=O)[C@H](Cc1ccccc1)NC(=O)[C@@H]1Cc2ccccc2CN1C(=O)[C@@H](N)Cc1ccc(O)cc1 = > 4.5 µM
• NC(=O)[C@@H](CCC(=O)O)NC(=O)[C@H](Cc1ccccc1)NC(=O)[C@@H]1Cc2ccccc2CN1C(=O)[C@@H](N)Cc1ccc(O)cc1 = > 4.5 µM
• NC(=O)[C@@H](CC(=O)O)NC(=O)[C@H](Cc1ccccc1)NC(=O)[C@H](Cc1ccccc1)NC(=O)[C@@H]1Cc2ccccc2CN1C(=O)[C@@H](N)Cc1ccc(O)cc1 = 3.28 µM

Record for `NC(=O)[C@H](CC(=O)O)NC(=O)[C@H](Cc1ccccc1)NC(=O)[C@@H]1Cc2ccccc2CN1C(=O)[C@@H](N)Cc1ccc(O)cc1` under target or system Mu-type opioid receptor (Homo sapiens, UniProt P35372): Ki reported as > 4.5 µM

Form: item `NC(=O)C[C@H](NC(=O)[C@H](Cc1ccccc1)NC(=O)[C@@H]1Cc2ccccc2CN1C(=O)[C@@H](N)Cc1ccc(O)cc1)C(=O)O` ; test system Mu-type opioid receptor (Homo sapiens, UniProt P35372); Ki: > 4.5 µM

Mu-type opioid receptor (Homo sapiens, UniProt P35372) assay, molecule `NC(=O)[C@@H](CCC(=O)O)NC(=O)[C@H](Cc1ccccc1)NC(=O)[C@H](Cc1ccccc1)NC(=O)[C@@H]1Cc2ccccc2CN1C(=O)[C@@H](N)Cc1ccc(O)cc1` , recorded Ki = 1.95 µM

Result for `NC(=O)CC[C@H](NC(=O)[C@H](Cc1ccccc1)NC(=O)[C@@H]1Cc2ccccc2CN1C(=O)[C@@H](N)Cc1ccc(O)cc1)C(=O)O` , tested on Mu-type opioid receptor (Homo sapiens, UniProt P35372), Ki: > 4.5 µM

Observed Ki, Mu-type opioid receptor (Homo sapiens, UniProt P35372), `CC(=O)NCCCC[C@@H](NC(=O)[C@H](Cc1ccccc1)NC(=O)[C@H](Cc1ccccc1)NC(=O)[C@@H]1Cc2ccccc2CN1C(=O)[C@@H](N)Cc1ccc(O)cc1)C(=O)O` : > 4.5 µM

###

Where a SMILES comes first, the peptide text is derived from it. [ ]: non-standard residue; d: D form. Tic = O=C(O)[C@@H]1Cc2ccccc2CN1
In what follows, each item is paired with its Ki for Mu-type opioid receptor (Homo sapiens, UniProt P35372).

Short answer on Mu-type opioid receptor (Homo sapiens, UniProt P35372) for `NC(=O)CC[C@@H](NC(=O)[C@H](Cc1ccccc1)NC(=O)[C@H](Cc1ccccc1)NC(=O)[C@@H]1Cc2ccccc2CN1C(=O)[C@@H](N)Cc1ccc(O)cc1)C(=O)O` , Ki: > 4.5 µM

// assay Mu-type opioid receptor (Homo sapiens, UniProt P35372), entry `NC(=O)[C@H](CCC(=O)O)NC(=O)[C@H](Cc1ccccc1)NC(=O)[C@@H]1Cc2ccccc2CN1C(=O)[C@@H](N)Cc1ccc(O)cc1` , Ki value = 4.5 µM

Record `NC(=O)C[C@H](NC(=O)[C@H](Cc1ccccc1)NC(=O)[C@H](Cc1ccccc1)NC(=O)[C@@H]1Cc2ccccc2CN1C(=O)[C@@H](N)Cc1ccc(O)cc1)C(=O)O` has Mu-type opioid receptor (Homo sapiens, UniProt P35372) Ki equal to > 4.5 µM

Noted Ki for `NC(=O)CC[C@@H](NC(=O)[C@H](Cc1ccccc1)NC(=O)[C@@H]1Cc2ccccc2CN1C(=O)[C@@H](N)Cc1ccc(O)cc1)C(=O)O` , tested on Mu-type opioid receptor (Homo sapiens, UniProt P35372): > 4.5 µM

Response field Ki (Mu-type opioid receptor (Homo sapiens, UniProt P35372)) for item `NC(=O)[C@H](CC(=O)O)NC(=O)[C@H](Cc1ccccc1)NC(=O)[C@H](Cc1ccccc1)NC(=O)[C@@H]1Cc2ccccc2CN1C(=O)[C@@H](N)Cc1ccc(O)cc1` : > 4 µM

Ki on Mu-type opioid receptor (Homo sapiens, UniProt P35372) for N[C@@H](Cc1ccc(O)cc1)C(=O)N1Cc2ccccc2C[C@H]1C(=O)N[C@@H](Cc1ccccc1)C(=O)N[C@@H](Cc1ccccc1)C(=O)O (H-Y[Tic]FF-OH) is > 4.5 µM

###

Molecular target: Delta-type opioid receptor (Homo sapiens, UniProt P41143)
Assay: Affinity towards human Opioid receptor delta 1 on CHO cell membranes using [3H]DPDPE displacement.
Where a SMILES comes first, the peptide text is derived from it. [ ]: non-standard residue; d: D form. Tic = O=C(O)[C@@H]1Cc2ccccc2CN1
result_type: log10 Ki (log10 of the value in µM)
Heads up, the numbers here are log10 of Ki in µM units.

Some entries whose results are on file:
- NC(=O)[C@@H](CC(=O)O)NC(=O)[C@H](Cc1ccccc1)NC(=O)[C@H](Cc1ccccc1)NC(=O)[C@@H]1Cc2ccccc2CN1C(=O)[C@@H](N)Cc1ccc(O)cc1: -1.99
- NC(=O)CC[C@H](NC(=O)[C@H](Cc1ccccc1)NC(=O)[C@@H]1Cc2ccccc2CN1C(=O)[C@@H](N)Cc1ccc(O)cc1)C(=O)O: -1.42
- NC(=O)C[C@@H](NC(=O)[C@H](Cc1ccccc1)NC(=O)[C@H](Cc1ccccc1)NC(=O)[C@@H]1Cc2ccccc2CN1C(=O)[C@@H](N)Cc1ccc(O)cc1)C(=O)O: -2.09
- N[C@@H](Cc1ccc(O)cc1)C(=O)N1Cc2ccccc2C[C@H]1C(=O)N[C@@H](Cc1ccccc1)C(=O)O (H-Tyr-[Tic]-Phe-OH): -0.83
- NC(=O)[C@H](CCC(=O)O)NC(=O)[C@H](Cc1ccccc1)NC(=O)[C@@H]1Cc2ccccc2CN1C(=O)[C@@H](N)Cc1ccc(O)cc1: -1.70

Then there is this compound:
For reference, reported log10 Ki for `NC(=O)[C@@H](CCC(=O)O)NC(=O)[C@H](Cc1ccccc1)NC(=O)[C@H](Cc1ccccc1)NC(=O)[C@@H]1Cc2ccccc2CN1C(=O)[C@@H](N)Cc1ccc(O)cc1` stands at -2.11
